// reported growth inhibition for each item listed
Assay: NCI Yeast Anticancer Drug Screen. Data for the rad50 strain (AID 155);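 further: 0% = growth of vehicle-only cultures of the same strain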
Conditions: S. cerevisiae rad50 strain growth inhibition; at 1.2 µM; active compounds read high
This is part of a sample that, as a whole, favours compounds with a hit. Of some 79,000 tested, about 15% had one in any assay.
Number in %, nothing else.

>  <COMPOUND>
CC(=O)Nc1ccc(SC(C)=O)cc1

>  <READOUT>
growth inhibition

>  <RESULT_VALUE>
-29

$$$$
>  <COMPOUND>
CNC(=O)OCc1c(COC(=O)NC)c(-c2ccc(Cl)c(Cl)c2)n2c1CCC2

>  <READOUT>
growth inhibition

>  <RESULT_VALUE>
-51

$$$$
>  <COMPOUND>
NC(=NCc1ccccc1)N/N=C\c1ccnc2ccccc12

>  <READOUT>
growth inhibition

>  <RESULT_VALUE>
1

$$$$

growth inhibition measured on CCCCCCCCCCCCCCCCCCOCC(O)COP(=O)(O)OCC1OC(n2cc(F)c(=O)[nH]c2=O)CC1O (stereo not drawn) = 18

So, CC(C(=O)N1C(=O)N(C(=O)[C@H](C)C(O)c2ccccc2)[C@H](c2ccccc2)[C@H]1c1ccccc1)[C@@H](O)c1ccccc1 (stereo partly drawn) ? Its growth inhibition was -7

* * *

Assay: NCI Yeast Anticancer Drug Screen. Data for the rad50 strain (AID 155);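 further: 0% = growth of vehicle-only cultures of the same strain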
Conditions: S. cerevisiae rad50 strain growth inhibition; at 5.0 µM (retest, dose inferred, filed as 0.5)
Method: Growth inhibition of yeast strains with defined genetic alterations is measured as a screen for potential anti-cancer activity. Selected strains with alterations in DNA damage repair or cell cycle control were exposed to compounds and growth inhibition was measured relative to vehicle treated controls. The strain used in this assay is rad50
The panel holds about 79,000 compounds, 15% with a hit somewhere; the sample as a whole holds those more often. Calls of active or inactive are those of the source. Cut-off read from the data, not from the text of the source: active = growth inhibition above about 70%; inactive = the rest.
Log the outcome using a class from 1 (yes) = active, 0 (no) = inactive

>  <COMPOUND>
CCOC(=O)c1cnc2c(C(F)(F)F)cccc2c1N=[N+]=[N-]

>  <CLASSIFICATION>
0 (no)

$$$$

Enquiry: Recorded test call requested for N#CSc1ccc(S(N)(=O)=O)cc1
Return: 0 (no)

Enquiry: Status in this test for c1ccc2c(c1)C(=NCCCN1CCCCCC1)c1cccn1-2 ?
Return: 0 (no)

Enquiry: How did this test come out for NC1=NS(=O)(=O)N=C(N)C1=Cc1ccc([N+](=O)[O-])o1 ?
Return: 0 (no)

Enquiry: Hi team, can someone confirm the assay call for CCOC(=O)C(NC(=O)c1ccccc1)(N1CCN(c2cc3c(cc2F)c(=O)c(C(=O)O)cn3C2CC2)CC1)C(F)(F)F (configuration not stated) ?
Return: 0 (no)

Enquiry: Identify the outcome logged in this assay for the compound shown: O=C1Nc2ccccc2/C1=C/COc1ccccc1
Return: 0 (no)

Enquiry: I would be grateful if you could indicate the recorded call for CC(/C=C/c1ccc2c(c1)OCO2)[N+](=O)[O-] (configuration not stated) .
Return: 1 (yes)

* * *

Experiment: NCI Yeast Anticancer Drug Screen. Data for the wt2 strain (AID 169);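 further: 0% = growth of vehicle-treated yeast cultures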
Conditions: S. cerevisiae wt2 strain growth inhibition; at 33.0 µM; active compounds read high
About 79,000 compounds went through this panel and 15% of them were active in at least one assay; those are over-represented in the sample as a whole.
Output: class label from growth inhibition. Mapping: band A: < 20%; band B: ≥ 20% and < 80%; band C: ≥ 80%

Sample answers from the record:
>  <MOLECULE>
CCN(CC)CC(O)c1ccc2ccc3ccccc3c2c1 (stereo not given)

>  <CLASSIFICATION>
band B

$$$$
>  <MOLECULE>
Cc1ccc(NN(NC(=O)OC(C)C)C(=O)OC(C)C)cc1

>  <CLASSIFICATION>
band A

$$$$

Enquiry: Into which category would you place S=C(Nc1ccc(Cl)cc1)SC1CCCCC1 ?
Return: band C

Enquiry: Assign a category based on measured growth inhibition for [N-]=[N+]=NC1=C(c2ccccn2)C(=O)c2cccc3cccc1c23 and give only the class name.
Return: band B

Enquiry: Kindly identify the class of COc1ccc(O)c(/C=N\Nc2ccccc2)c1 .
Return: band B

Enquiry: Tag the class for CC(=O)Oc1cc(-c2cc(OC(C)=O)c(OC(C)=O)c3ccccc23)c2ccccc2c1OC(C)=O
Return: band A

Enquiry: Which growth inhibition band matches O=C(OCC=C1CCCC1)c1cc([N+](=O)[O-])cc([N+](=O)[O-])c1 ?
Return: band C

Enquiry: Band for the recorded growth inhibition of [N-]=N[N+]#I1OC(C(F)(F)F)(C(F)(F)F)c2ccccc21 ?
Return: band C

Enquiry: Into which category would you place O=C1C2C(C(=O)N1c1ccc(OCc3ccccc3)cc1)C1c3ccccc3C2C2CCCCN21 (stereo not given) ?
Return: band A
